Cited source for all entries: ChEMBL document CHEMBL4024724

Target: Carbonic anhydrase 9 (Homo sapiens, UniProt Q16790)
Assay: Inhibition of recombinant human carbonic anhydrase 9 incubated for 15 mins prior to testing by stopped flow CO2 hydration assay
Outcome Measure: Ki (nM)

>  <Molecule>
COc1cc2c(=O)n(-c3cccc(S(N)(=O)=O)c3)c(S)nc2c(OC)c1OC

>  <Measurement Target>
Carbonic anhydrase 9 (Homo sapiens, UniProt Q16790)

>  <Outcome Measure>
Ki

>  <Reported Result>
20.1

$$$$
>  <Molecule>
COc1cc2nc(S)n(-c3cccc(S(N)(=O)=O)c3)c(=O)c2cc1OC

>  <Measurement Target>
Carbonic anhydrase 9 (Homo sapiens, UniProt Q16790)

>  <Outcome Measure>
Ki

>  <Reported Result>
19.8

$$$$

[A] NS(=O)(=O)c1cccc(-n2c(S)nc3cc(Br)ccc3c2=O)c1
[B] Cc1ccc2nc(S)n(-c3cccc(S(N)(=O)=O)c3)c(=O)c2c1
[C] NS(=O)(=O)c1cccc(-n2c(S)nc3cc(F)ccc3c2=O)c1
[D] COc1ccc2c(=O)n(-c3cccc(S(N)(=O)=O)c3)c(S)nc2c1
Query: Order these by Ki, descending, and give the full ranking. Order the labels as requested and give them as your answer.
Response: B, D, A, C
(B: 58.9 nM, D: 25 nM, A: 16.8 nM, C: 2.7 nM)
